System: Escherichia coli TOP10
experiment: shrunken log2 fold change of peptide-encoding DNA abundance (4.5 h post-induction vs induction); higher = less antimicrobial activity (less host growth inhibition)
measurement.context: time post-induction: 4.5 h; library: site-saturation at positions 5, 18, 19, 20
I'd appreciate it if you could supply shrunken log2 fold change values for the items below.

Here is how some sequences turned out for shrunken log2 fold change.
1) RRIRCRPPRLPRPRPRPNAVPRP; 0.0238
2) RRIRPRPPRLPRPRPRPAPVPRP; 0.409
3) RRIRIRPPRLPRPRPRPEQLPRP; -0.148
4) RRIRGRPPRLPRPRPRPPPGPRP; 1.36
5) RRIRPRPPRLPRPRPRPQPYPRP; -0.177

// each sequence listed below needs its shrunken log2 fold change
1. RRIRWRPPRLPRPRPRPMWSPRP
2. RRIRARPPRLPRPRPRPYNFPRP
3. RRIRTRPPRLPRPRPRPCQCPRP
4. RRIRMRPPRLPRPRPRPAPHPRP

0.266
-0.192
-0.195
1.33

I need shrunken log2 fold change for every entry listed below, if you could help.
1. RRIRCRPPRLPRPRPRPDIYPRP
2. RRIRPRPPRLPRPRPRPNCYPRP
3. RRIRPRPPRLPRPRPRPFTQPRP
4. RRIRARPPRLPRPRPRPARLPRP
5. RRIRIRPPRLPRPRPRPEFMPRP
6. RRIRCRPPRLPRPRPRPATRPRP
7. RRIRIRPPRLPRPRPRPKPAPRP
8. RRIRHRPPRLPRPRPRPLDHPRP

1. -0.174
2. -0.344
3. -0.0301
4. 0.582
5. -0.25
6. 0.366
7. 0.243
8. -0.34

###

System: Escherichia coli TOP10;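 note: peptides expressed intracellularly from a pBAD plasmid library in pooled LB shake-flask culture, induced with 0.3% L-arabinose, DNA abundance read by NGS, three biological replicates, DESeq2 with apeglm shrinkage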
experiment: shrunken log2 fold change of peptide-encoding DNA abundance (4.5 h post-induction vs induction); higher = less antimicrobial activity (less host growth inhibition)
measurement.context: time post-induction: 4.5 h; library: site-saturation at positions 5, 18, 19, 20
measured.metric: shrunken log2 fold change
Numbers only.

Lab note: each sequence below needs its shrunken log2 fold change filled in.
1. RRIRSRPPRLPRPRPRPLRPPRP
2. RRIRVRPPRLPRPRPRPHIDPRP
3. RRIRPRPPRLPRPRPRPHINPRP

0.953
-0.15
-1.16

Respectfully, I request shrunken log2 fold change for each entry included below.
1. RRIRERPPRLPRPRPRPSQNPRP
2. RRIRYRPPRLPRPRPRPNPRPRP
3. RRIRPRPPRLPRPRPRPYREPRP
4. RRIRNRPPRLPRPRPRPWAQPRP
5. RRIRYRPPRLPRPRPRPNIEPRP
6. RRIRTRPPRLPRPRPRPELRPRP
7. RRIRFRPPRLPRPRPRPRFWPRP

1. -0.267
2. -0.123
3. -0.073
4. -0.0776
5. -0.801
6. 0.225
7. 0.317

For every listed record, write down its shrunken log2 fold change.
1. RRIRHRPPRLPRPRPRPLVWPRP
2. RRIRERPPRLPRPRPRPGDHPRP
3. RRIRQRPPRLPRPRPRPANSPRP
4. RRIRLRPPRLPRPRPRPTVEPRP
5. RRIRFRPPRLPRPRPRPTQTPRP

1: 0.482; 2: -0.0518; 3: -0.0568; 4: 0.114; 5: -0.199

// batch mode: one shrunken log2 fold change value per listed entry
1. RRIRRRPPRLPRPRPRPPNRPRP
2. RRIRQRPPRLPRPRPRPFLYPRP
3. RRIRHRPPRLPRPRPRPLMDPRP
4. RRIRLRPPRLPRPRPRPLQWPRP
5. RRIRYRPPRLPRPRPRPVEVPRP

[0.4, -0.615, -0.974, 0.126, -0.282]
